Each recorded value in this set is attributed to patent US20260193326A1.

Let's look at some binders and their measured kon.
assay.system: AAV8 (adeno-associated virus serotype 8)
assay.comment: SPR, AAV on CM5 chip
Return type: number; implicit unit M⁻¹ s⁻¹.

Take a look at these entries with their results.
>  <binder>
A4-C1 (VHH) VQLQESGGGLVQPGGSLRLSCAASGSGFSINTMGWYRQAPGKQRELVATVTRDGSTNYADFVKGRFTISRDNAKNTVYLQMNSLRPEDTAVYYCHLDEVRESSWTTSNLWGQGTQVTVSSGGGGSGGGGSGGGGSVQLQESGGGLVQPGGSLRLSCAASGSGFSINTMGWYRQAPGKQRELVATVTRDGSTNYADFVKGRFTISRDNAKNTVYLQMNSLRPEDTAVYYCHLDEVRESSWTTSNLWGQGTQVTVSSGGGGSGGGGSGGGGSVQLQESGGGLVQPGGSLRLSCAASGSGFSINTMGWYRQAPGKQRELVATVTRDGSTNYADFVKGRFTISRDNAKNTVYLQMNSLRPEDTAVYYCHLDEVRESSWTTSNLWGQGTQVTVSS

>  <kon (M⁻¹ s⁻¹)>
178000

$$$$
>  <binder>
A4-C3 (bispecific antibody) VQLQESGGGLVQPGGSLRLSCAASGSIFSINLMGWYRQAPGKQRELVATITRGGNTNYAGSVKGRFTISRDNAKNTVYLQMNSLRPEDTAVYYCHVDEVRQSSWTTSNLWGQGTQVTVSSGGGGSGGGGSGGGGSVQLQESGGGLVQPGGSLRLSCAASGSIFSINLMGWYRQAPGKQRELVATITRGGNTNYAGSVKGRFTISRDNAKNTVYLQMNSLRPEDTAVYYCHVDEVRQSSWTTSNLWGQGTQVTVSSGGGGSGGGGSGGGGSVQLQESGGGLVQPGGSLRLSCAASGSNFRINTMGWYRQAPGKQRELVATVTRGGSTNYADSVKGRFTISRDNPKDTVYLQMNSLRPEDTAVYYCHVDEVRESSWTTSNLWGQGTQVTVSS

>  <kon (M⁻¹ s⁻¹)>
74900

$$$$

As a next step, examine the binder that follows.
Query string: Indicate its recorded kon; the binder in question is A4-C2 (VHH) VQLQESGGGLVQPGGSLRLSCAASGSAFSINTMGWYRQAPGKQRELVASVTPGGSTNYADSVKGRFTISRDNAKNTIYLQMNSLRPEDTAVYYCHLDEVRESSWTTSNLWGQGTQVTVSSGGGGSGGGGSGGGGSVQLQESGGGLVQPGGSLRLSCAASGSAFSINTMGWYRQAPGKQRELVASVTPGGSTNYADSVKGRFTISRDNAKNTIYLQMNSLRPEDTAVYYCHLDEVRESSWTTSNLWGQGTQVTVSSGGGGSGGGGSGGGGSVQLQESGGGLVQPGGSLRLSCAASGSAFSINTMGWYRQAPGKQRELVASVTPGGSTNYADSVKGRFTISRDNAKNTIYLQMNSLRPEDTAVYYCHLDEVRESSWTTSNLWGQGTQVTVSS
Result string: 139000
